Source listed as paper PMC8469169.

Entries and their measured EC50 follow.
system: GM05757 cells; experiment: PrestoBlue (resazurin) cytotoxicity assay in GM05757 normal fibroblasts; details: read-out: EC50 GM05757 48 h; 48 h incubation
Answer in µM, number only, no unit symbol.

response.value for N.N.[Cl][Pt][Cl] [Cisplatin, reference compound] (field: EC50) = 84

response.value for O=C1[O][Pt]2([NH][C@@H]3CCCC[C@H]3[NH]2)[O]C1=O [Oxaliplatin, reference compound] (field: EC50) = 165

response.value for F[P-](F)(F)(F)(F)F.O=C(O)CN1CCN(CCCOc2cc3[n+]4c(c2)-c2cccc[n+]2[Pt-2]4([Cl])[n+]2ccccc2-3)CCN(CC(=O)O)CC1 (field: EC50) = 202

----------
Entries and their measured EC50 follow.
Tested on: GM05757 cells
Test: PrestoBlue (resazurin) cytotoxicity assay in GM05757 normal fibroblasts
Settings: read-out: EC50 GM05757 72 h; 72 h incubation
Procedure: Human CRC cells HCT116 obtained from ATCC were cultured in Eagle’s minimal essential medium (EMEM), while Dulbecco’s modified Eagle medium (DMEM) was used for the normal fibroblast cell line GM05757 purchased from Coriell Institute. […] Cytotoxic activity was measured with the PrestoBlue method, which consists of a Resazurin-based metabolic assay. […] Changes in cell viability were recorded by fluorescence (λex = 570 nm; λem = 610 nm). […]
Output should be the measured figure followed by the unit it is expressed in.

Would you please look over these solved cases?
> print(dat)
                                   compound  endpoint.result
1  O=C1[O][Pt]2([NH][C@@H]3CCCC[C@H]3[NH]2)[O]C1=O [Oxaliplatin, reference compound]            65 µM
2  N.N.[Cl][Pt][Cl] [Cisplatin, reference compound]            77 µM

response.value for F[P-](F)(F)(F)(F)F.O=C(O)CN1CCN(CCCOc2cc3[n+]4c(c2)-c2cccc[n+]2[Pt-2]4([Cl])[n+]2ccccc2-3)CCN(CC(=O)O)CC1 [NOTA-C3-TP] (field: EC50) = 51 µM

----------
Entries and their measured EC50 follow.
tested on: HCT116 cells; assay: PrestoBlue (resazurin) cytotoxicity assay in HCT116 cells; type: cell-based, human; details: 48 h incubation; read-out: EC50 HCT116 48 h
Output should be the measured figure followed by the unit it is expressed in.

Would you please look over these solved cases?
> print(dat)
                                   molecule  readout.name  endpoint.result
1  F[P-](F)(F)(F)(F)F.O=C(O)CN1CCN(CCCOc2cc3[n+]4c(c2)-c2cccc[n+]2[Pt-2]4([Cl])[n+]2ccccc2-3)CCN(CC(=O)O)CC1          EC50            63 µM
2  O=C1[O][Pt]2([NH][C@@H]3CCCC[C@H]3[NH]2)[O]C1=O [Oxaliplatin, reference compound]          EC50            64 µM

Value sought: EC50, system HCT116 cells, item N.N.[Cl][Pt][Cl] [Cisplatin, reference compound] . Result: 42 µM

----------
system: GM05757 cells; experiment: PrestoBlue (resazurin) cytotoxicity assay in GM05757 normal fibroblasts; details: read-out: EC50 GM05757 24 h; 24 h incubation
Entries and their measured EC50 follow.
Answer in µM, number only, no unit symbol.

> print(dat)
                                   compound    measured.on  readout.name  endpoint.result
1  N.N.[Cl][Pt][Cl] [Cisplatin, reference compound]  GM05757 cells          EC50               88

Value sought: EC50, system GM05757 cells, item F[P-](F)(F)(F)(F)F.O=C(O)CN1CCN(CCCOc2cc3[n+]4c(c2)-c2cccc[n+]2[Pt-2]4([Cl])[n+]2ccccc2-3)CCN(CC(=O)O)CC1 [NOTA-C3-TP] . Result: 504
